biological target: Ubiquitin carboxyl-terminal hydrolase 2 (Homo sapiens); assay: Confirmation Assay for Inhibitors of Ubiquitin-specific Protease USP2a Using CHOP2 as the Reporter; conditions: USP2 core, Ub-CHOP2 coupled reporter fluorescence; series mostly up to 38.3 µM; note: nearly all actives have a fitted effect of over 55% in size; note: potency is the fitted concentration of half-maximal effect
Results filed as inconclusive are left out. Calls of active or inactive are those of the source. Calls come from the whole dose curve; as a rule, active = well fitted inhibition curve with a large enough effect; inconclusive = small, poorly fitted or top-dose-only effect, or effect the other way; inactive = flat fitted curve, though single readings scatter.
parameterMeasured: Potency

{"compound": "CC(=O)c1ccc2c(c1)C1C=CCC1C(C(=O)O)N2 (stereo unspecified)", "Potency": "11.7 µM (active)"}
{"compound": "O=C(Nc1nc(-c2ccco2)c(-c2ccco2)s1)C1CC(=O)N(c2ccc3c(c2)OCCO3)C1 (stereo unspecified)", "Potency": "10.4 µM (active)"}
{"compound": "COc1ccc(OCC(=O)NCCNC(=O)c2cccnc2)cc1", "Potency": "inactive"}
{"compound": "CCOC(=O)c1c(-c2ccc(C)o2)csc1NC(=O)COC(=O)c1ccc(NC(N)=O)cc1", "Potency": "inactive"}

Batch request: Potency for each of the following compounds.
1. O=C(CSc1nc2ccccc2[nH]1)Nc1ccc2c(c1)OCCO2
2. CCc1cc2c(=O)c(-c3nc4ccccc4n3C)coc2c(CN2CCCCC2C)c1O (stereo unspecified)
3. COc1cc(/C=C/C(=O)OCC(=O)NC(=O)NCc2ccco2)ccc1OC(F)F
4. Cc1ccccc1N=C1NC(=O)CS1
5. COC(=O)CCC(=O)Nc1sc2c(c1C#N)CCCC2
6. CCCCCCCCCCCCCCCC[N+](C)(C)CCN(Cc1ccc(OC)cc1)c1ncccn1
7. CCNc1sc(C(=O)c2cccs2)c(N)c1-c1nc2ccccc2s1

Result:
1. inactive
2. inactive
3. inactive
4. inactive
5. inactive
6. 11.7 µM (active)
7. inactive
